Target: human glucagon receptor (human) (UniProt P47871)
Sequence (P47871 26-477): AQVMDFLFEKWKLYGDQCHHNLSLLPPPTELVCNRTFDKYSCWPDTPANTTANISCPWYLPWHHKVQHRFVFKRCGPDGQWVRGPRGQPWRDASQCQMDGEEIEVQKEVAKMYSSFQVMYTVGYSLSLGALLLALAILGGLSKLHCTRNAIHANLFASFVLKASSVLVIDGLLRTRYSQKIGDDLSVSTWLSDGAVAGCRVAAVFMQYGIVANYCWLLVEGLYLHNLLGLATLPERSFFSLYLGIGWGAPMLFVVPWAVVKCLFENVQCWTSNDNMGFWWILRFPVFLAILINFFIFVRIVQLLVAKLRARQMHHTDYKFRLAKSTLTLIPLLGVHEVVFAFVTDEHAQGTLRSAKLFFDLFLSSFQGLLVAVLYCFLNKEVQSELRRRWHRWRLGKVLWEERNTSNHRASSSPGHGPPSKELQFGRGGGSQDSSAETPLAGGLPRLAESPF
Test: cell-based or functional assay
Starred links: 1 amine or outer side, 2 acyl side, 3 side chain; linkers in the order of their positions; H or OH if unused. Non-standard residues stand in square brackets, D forms with d. Groups on a side chain read outwards from the residue. No end group written: not given here. *: point of attachment. C20 diacid = O=C(O)CCCCCCCCCCCCCCCCCCC(=O)*; αMePhe(2-F) = C[C@](N)(Cc1ccccc1F)C(=O)O; γGlu = O=C(O)[C@H](CCC(=O)[*:2])N[*:1]; AEEA = NCCOCCOCC(=O)O; Aib = CC(C)(N)C(=O)O
test readout: cAMP Rel EC50 (in the presence of 1% HSA) (nM)
Numeric answer only, unit nM assumed.

Supply reported cAMP Rel EC50 (in the presence of 1% HSA) belonging to this binder: YXQGTXTSDXXIXLDXKAQXEFIEXLVEGGPSSGAPPPEGE (not fully specified; non-natural residues; AEEA-γGlu-C18 diacid acyl; C-terminal amide; synthetic construct; SITE 2: note = 2-Aminoisobutyric Acid; SITE 6: note = alpha-methyl-2-fluoro-L-phenylalanine …; SITE 10: note = 3-(4-Pyridyl)-L-alanine; SITE 11: note = alpha-methyl-L-serine; SITE 13: note = alpha-methyl-leucine; SITE 16: note = L-ornithine; SITE 17: note = Lysine is chemically mo) [Example 1158]
301

Supply reported cAMP Rel EC50 (in the presence of 1% HSA) belonging to this binder: Y[Aib]QGT[αMePhe(2-F)]TSDYSILLDKIAAK([AEEA-γGlu-C20 diacid])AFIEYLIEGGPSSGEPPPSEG-NH2 [Example 296]
517

Supply reported cAMP Rel EC50 (in the presence of 1% HSA) belonging to this binder: YXQGTXTSDXXIXLDXKAQXEFIEXLVEGGPSSGAPPPTGE (not fully specified; non-natural residues; lipidated Lys; C-terminal amide; synthetic construct; SITE 2: note = 2-Aminoisobutyric Acid; SITE 6: note = alpha-methyl-2-fluoro-L-phenylalanine; SITE 10: note = 3-(4-Pyridyl)-L-alanine; SITE 11: note = alpha-methyl-L-serine; SITE 13: note = alpha-methyl-leucine; SITE 16: note = L-ornithine; SITE 17: note = Lysine is chemically mo) [Example 1152]
287

Supply reported cAMP Rel EC50 (in the presence of 1% HSA) belonging to this binder: YXQGTXTSDXXIXLDXKAQXEFIEXLIEGGPPSXXPPPXGGGE (Lys acylated AEEA-γGlu-C18 diacid; non-natural residues; C-amide; synthetic construct; SITE 2: note = 2-Aminoisobutyric Acid; SITE 6: note = alpha-methyl-2-fluoro-L-phenylalanine; SITE 10: note = 3-(4-Pyridyl)-L-alanine; SITE 11: note = alpha-methyl-L-serine; SITE 13: note = alpha-methyl-leucine; SITE 16: note = L-ornithine; SITE 17: note = Lysine is chemically mo) [Example 1197]
288

Supply reported cAMP Rel EC50 (in the presence of 1% HSA) belonging to this binder: YXQGTXTSDXSIXLDKKAQXAFIEYLAEGGPSSGEPPPSGSEE (non-natural residues; lysine acylated with C18 diacid; C-terminal amide; synthetic construct; SITE 2: note = 2-Aminoisobutyric Acid; SITE 6: note = alpha-methyl-2-fluoro-L-phenylalanine; SITE 10: note = 3-(4-Pyridyl)-L-alanine; SITE 13: note = alpha-methyl-leucine; SITE 17: note = Lysine is chemically modified through conjugation of the epsilon-amino group of the Lysine) [Example 631]
1250

Supply reported cAMP Rel EC50 (in the presence of 1% HSA) belonging to this binder: YXQGTXTSDXXIXLDXKAQXEFIEXLIEGGPPSXEPPPSGGGE (non-natural residues; acylated Lys; C-terminal amide; synthetic construct; SITE 2: note = 2-Aminoisobutyric Acid; SITE 6: note = alpha-methyl-2-fluoro-L-phenylalanine; SITE 10: note = 3-(4-Pyridyl)-L-alanine; SITE 11: note = alpha-methyl-L-serine; SITE 13: note = alpha-methyl-leucine; SITE 16: note = L-ornithine; SITE 17: note = Lysine is chemically mo) [Example 1201]
234
